molecular target: APOBEC3A wild-type (Homo sapiens, UniProt P31941 SEQ:1-199); assay: deamination, 50 nM enzyme, 1 h 37 C; settings: tags: myc-His, 293T; label: 3'-fluorescein
Sequence (P31941 whole entry): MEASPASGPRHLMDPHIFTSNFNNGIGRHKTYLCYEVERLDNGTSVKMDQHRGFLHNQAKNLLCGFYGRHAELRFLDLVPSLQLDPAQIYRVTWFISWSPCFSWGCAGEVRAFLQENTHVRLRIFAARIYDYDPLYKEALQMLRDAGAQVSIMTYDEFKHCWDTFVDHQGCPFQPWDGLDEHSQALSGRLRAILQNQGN
What activity was measured for each of the following?
Kindly answer with a numeric value in % product, unit omitted.

Ask | Given the binder ATTATTATTATTCAAATGGATTTATTTATTTATTTATTTATTT (ssDNA) [-1 TCA substrate] , what is its reported activity?
Reply | 98.3

Ask | Param item: ATTATTATTATACAAATGGATTTATTTATTTATTTATTTATTT (ssDNA) [-1 ACA substrate]
Reply | 7.6

Ask | Param item: ATTATTATTATCCAAATGGATTTATTTATTTATTTATTTATTT (ssDNA) [-1 CCA substrate]
Reply | 42.9

Ask | Param item: ATTATTATTATGCAAATGGATTTATTTATTTATTTATTTATTT (ssDNA) [-1 GCA substrate]
Reply | 13
